# tested_on: matrix metalloproteinase 9 (MMP-9) (Homo sapiens, UniProt P14780)
# Construct: recombinant catalytic domain of MMP-9 (CDMMP-9), 39 kDa, aa 107–457 + NT His Tag
# Sequence (P14780 107-457): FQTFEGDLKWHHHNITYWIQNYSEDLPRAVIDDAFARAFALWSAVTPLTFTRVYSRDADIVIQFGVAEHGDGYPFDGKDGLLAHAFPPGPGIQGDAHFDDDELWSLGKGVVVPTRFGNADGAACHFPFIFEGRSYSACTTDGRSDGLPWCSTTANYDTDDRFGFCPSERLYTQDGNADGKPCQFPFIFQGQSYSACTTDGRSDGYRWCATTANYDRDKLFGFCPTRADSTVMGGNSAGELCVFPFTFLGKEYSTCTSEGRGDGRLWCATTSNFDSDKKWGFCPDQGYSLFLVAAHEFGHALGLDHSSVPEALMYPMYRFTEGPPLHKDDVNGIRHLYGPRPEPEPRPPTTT
# experiment_description: fluorometric inhibition assay with self-quenched peptide substrate; double reciprocal and secondary plots
assay_metric: Ki (µM)
# number only, unit µM dropped from output

Briefly, Ki measured for "O=C(/C=C/c1ccc(O)c2c1[C@H](C(=O)O[C@H](Cc1ccc(O)c(O)c1)C(=O)O)[C@@H](c1ccc(O)c(O)c1)O2)O[C@H](Cc1ccc(O)c(O)c1)C(=O)O" : 57.4
